The reported measurements were obtained from paper PMC4757811.

Please go through the items and note down their Kd.
- system under test: Brk SH2 domain (UniProt Q13882 78-170)
- Sequence (Q13882 78-170): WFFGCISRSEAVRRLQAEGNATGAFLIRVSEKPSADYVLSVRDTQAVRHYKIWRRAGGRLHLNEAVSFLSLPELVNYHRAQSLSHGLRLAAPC
- method: ITC
Square brackets hold non-standard residues; d marks the D form. Ends that are not written are not given here. pY = N[C@@H](Cc1ccc(OP(=O)(O)O)cc1)C(=O)O
Answers are plain numbers, in µM.

binder	Kd [µM]
FTS[pY]ENLTG [Phosphorylated Brk C-terminal tail peptide with the P450L substitution (FTSpYENLTG)]	53

Query: Reported Kd, binder FTS[pY]ENPTG [Phosphorylated Brk C-terminal tail peptide, wild type (FTSpYENPTG)] : ____
Result: 15
